# Test system: KM12 colon
# Assay name: NCI-60 one-dose screen, 48 h
# Test settings: 10 µM
The panel holds about 83,000 compounds, 20% with a hit somewhere; the sample as a whole holds those more often. Calls of active or inactive are those of the source. Rule for the calls: active = growth percent below 10; inactive = the rest.
The reply should be one of these categories: active, inactive

Consider the following illustrative entries.
Name the outcome recorded for CCCCN(CCCC)CCCCCCCCC(O)c1cc2ccccc2c2ccccc12 (stereo unspecified) in the assay. inactive

Quick one: `CN(C)c1ccc(Cc2ccc(N(C)C)cc2Cl)c(Cl)c1` inactive

Quick one: `Clc1ccc(Nc2ccnc(NCCNc3ccnc4cc(Cl)ccc34)n2)cc1` inactive

Quick one: `NC(=O)CC1(c2ccccc2)CCCCC1` inactive

Quick one: `O=C(O)CCCCSc1ncnc2nc[nH]c12` inactive

Continuing:
Name the outcome recorded for `COc1ccc(-c2nn(-c3cccc(NC(=O)Nc4ccccc4)c3)cc2-c2ccncc2)cc1Cl` in the assay. active
